Data origin, for the record: patent US20090209578A1

TESTED_ON: HIV-1 fusion (gp160 induced cell-cell fusion; HeLa P4 cell line expressing CCR5 and CD4 / CHO-Tat10 cell line) (Homo sapiens, UniProt P51681)
Sequence (P51681 whole entry, the tested form may be a part): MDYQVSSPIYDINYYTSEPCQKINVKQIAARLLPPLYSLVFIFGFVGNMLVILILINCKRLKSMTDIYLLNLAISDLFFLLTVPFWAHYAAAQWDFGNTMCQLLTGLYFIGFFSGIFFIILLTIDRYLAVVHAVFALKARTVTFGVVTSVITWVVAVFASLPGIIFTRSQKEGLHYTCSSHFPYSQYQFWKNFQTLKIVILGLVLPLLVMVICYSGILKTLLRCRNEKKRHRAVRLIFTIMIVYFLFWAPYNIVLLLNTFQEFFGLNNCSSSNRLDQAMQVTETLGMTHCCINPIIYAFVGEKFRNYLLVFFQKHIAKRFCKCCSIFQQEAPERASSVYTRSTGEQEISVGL
MEASUREMENT_DESCRIPTION: gp160 induced cell-cell fusion assay
Type: cell-based
CONDITION_SUMMARY: HeLa P4 / CHO-Tat10 cells, read-out: IC50

- COMPOUND: "Cc1nc(C2CCN(C(C)CC(NC(=O)C3CCC(F)(F)CC3)c3ccccc3)CC2)no1 (mixture of isomers) [Example 128]"
  IC50, nM: 26
- COMPOUND: "COC(=O)N1CCc2nc(C)n(C3CCN(C(C)CC(NC(=O)OC(C)C)c4ccccc4)CC3)c2C1 (mixture of isomers) [Example 14]"
  IC50, nM: 17.2
- COMPOUND: "Cc1nc2c(n1C1CCN(C(C)C[C@H](NC(=O)C3CC(F)(F)C3)c3ccccc3)CC1)CN(C(=O)C(C)C)CC2 (stereo partly shown) [Example 25]"
  IC50, nM: 0.4
- COMPOUND: "CCC(=O)N[C@@H](CC(C)N1CCC(n2c(C)nc3c2CN(C(=O)OC)CC3)CC1)c1cccc(F)c1 (stereo partly shown) [Example 67]"
  IC50, nM: 0.2
- COMPOUND: "Cc1cc(C(C)C)n(C2CCN(C(C)C[C@H](NC(=O)C3CCC(F)(F)CC3)c3ccccc3)CC2)n1 (single isomer, unassigned) [Example 117]"
  IC50, nM: 1170
- COMPOUND: "CCOC(=O)N1CCc2nc(C)n(C3CCN(C(C)C[C@H](NC(C)=O)c4cccc(F)c4)CC3)c2C1 (stereo partly shown) [Example 66]"
  IC50, nM: 3.5
- COMPOUND: "CC(=O)N1CCc2nc(C)n(C3CCN(C(C)C[C@H](NC(=O)C4CC4)c4cccc(F)c4)CC3)c2C1 (stereo partly shown) [Example 60]"
  IC50, nM: 0.6
- COMPOUND: "COC(=O)N1CCc2nc(C)n(C3CCN(C(C)CC(NC(=O)C4CCS(=O)(=O)CC4)c4ccccc4)CC3)c2C1 (mixture of isomers) [Example 8]"
  IC50, nM: 6
- COMPOUND: "CC(=O)N[C@@H](CC(C)N1CCC(n2c(C)nc3c2CN(C(=O)C(C)C)CC3)CC1)c1ccccc1 (single isomer, unassigned) [Example 31]"
  IC50, nM: 191
- COMPOUND: "Cc1nc2c(n1C1CCN(C(C)C[C@H](NC(=O)C3CCC3)c3ccccc3)CC1)CN(C(=O)C(C)C)CC2 (single isomer, unassigned) [Example 24]"
  IC50, nM: 0.2
- COMPOUND: "Cc1nc2c(n1C1CCN(C(C)C[C@H](NC(=O)C3(C)CC3)c3ccccc3)CC1)CN(C(=O)C(C)C)CC2 (stereo partly shown) [Example 27]"
  IC50, nM: 115
- COMPOUND: "CC(CC(NC(=O)C1CCC(F)(F)CC1)c1ccccc1)N1CCC(n2ccnc2)CC1 (mixture of isomers) [Example 127]"
  IC50, nM: 4.7
- COMPOUND: "COC(=O)N1CCc2nc(C)n(C3CCN(C(C)C[C@H](NC(=O)C4CCC4(F)F)c4ccccc4)CC3)c2C1 (stereo partly shown) [Example 5]"
  IC50, nM: 0.7

* * *

TESTED_ON: HIV-1 fusion (gp160 induced cell-cell fusion; HeLa P4 cell line expressing CCR5 and CD4 / CHO-Tat10 cell line) (Homo sapiens, UniProt P51681)
MEASUREMENT_DESCRIPTION: gp160 induced cell-cell fusion assay
Format: cell-based
CONDITION_SUMMARY: IC50 (nM), HeLa P4 / CHO-Tat10 cells
Text: Biol., 60, 147-52 (1996); and/or by using the intracellular calcium mobilisation assays as described by the same authors, and/or inhibiting cell fusion following procedures disclosed in Bradley et al., J Biomol Screen 9, 516-24 (2004). The gp160 induced cell-cell fusion assay uses a HeLa P4 cell line and a CHO-Tat10 cell line. The HeLa P4 cell line expresses CCR5 and CD4 and has been transfected with HIV-1 LTR-β-Galactosidase. […]
PROPERTY_LABEL: IC50

- MOLECULE: "CCC(=O)N[C@@H](CC(C)N1CCC(n2c(C)nc3c2CCN(C(C)=O)C3)CC1)c1cccc(F)c1 (stereo partly drawn)"
  PROPERTY_LABEL: "IC50"
  DATA_VALUE: "0.8 nM"
- MOLECULE: "CC(=O)N1CCc2c(nc(C)n2C2CCN(C(C)C[C@H](NC(=O)C(C)C)c3cccc(F)c3)CC2)C1 (stereo partly drawn)"
  PROPERTY_LABEL: "IC50"
  DATA_VALUE: "0.2 nM"
- MOLECULE: "CCCC(=O)N[C@@H](CC(C)N1CCC(n2c(C)nc3c2CN(C(C)=O)CC3)CC1)c1ccccc1 (stereo partly drawn)"
  PROPERTY_LABEL: "IC50"
  DATA_VALUE: "1.2 nM"
- MOLECULE: "CCC(=O)N[C@@H](CC(C)N1CCC(n2c(C)nc3c2CCN(C(=O)OC)C3)CC1)c1ccccc1 (stereo partly drawn)"
  PROPERTY_LABEL: "IC50"
  DATA_VALUE: "0.4 nM"
- MOLECULE: "CC(=O)N1CCc2nc(C)n(C3CCN(C(C)C[C@H](NC(=O)C(C)C)c4cccc(F)c4)CC3)c2C1 (stereo partly drawn)"
  PROPERTY_LABEL: "IC50"
  DATA_VALUE: "0.5 nM"
- MOLECULE: "CCC(=O)N[C@@H](CC(C)N1CCC(n2c(C)nc3c2CN(C(C)=O)CC3)CC1)c1cccc(F)c1 (stereo partly drawn)"
  PROPERTY_LABEL: "IC50"
  DATA_VALUE: "1 nM"

* * *

TESTED_ON: HIV-1 fusion (gp160 induced cell-cell fusion; HeLa P4 cell line expressing CCR5 and CD4 / CHO-Tat10 cell line) (Homo sapiens, UniProt P51681)
MEASUREMENT_DESCRIPTION: gp160 induced cell-cell fusion assay
Format: cell-based
CONDITION_SUMMARY: HeLa P4 / CHO-Tat10 cells, read-out: IC50
Description: Biol., 60, 147-52 (1996); and/or by using the intracellular calcium mobilisation assays as described by the same authors, and/or inhibiting cell fusion following procedures disclosed in Bradley et al., J Biomol Screen 9, 516-24 (2004). The gp160 induced cell-cell fusion assay uses a HeLa P4 cell line and a CHO-Tat10 cell line. The HeLa P4 cell line expresses CCR5 and CD4 and has been transfected with HIV-1 LTR-β-Galactosidase. […]

- COMPOUND: "CC(=O)N1CCc2nc(C)n(C3CCN(C(C)C[C@H](NC(=O)C4CCC(F)(F)CC4)c4ccccc4)CC3)c2C1 (stereo partly shown) [Example 54]"
  UNIT_TEXT: "nM"
  IC50: 0.4
- COMPOUND: "COC(=O)N1CCc2c(nc(C)n2C2CCN(C(C)C[C@H](NC(=O)C3CC(F)(F)C3)c3cccc(F)c3)CC2)C1 (stereo partly shown) [Example 80]"
  UNIT_TEXT: "nM"
  IC50: 0.2
- COMPOUND: "Cc1nccn1C1CCN(C(C)C[C@H](NC(=O)C2CCC(F)(F)CC2)c2ccccc2)CC1 (stereo partly shown) [Example 112]"
  UNIT_TEXT: "nM"
  IC50: 1
- COMPOUND: "COC(=O)N1CCc2nc(C)n(C3CCN(C(C)CC(NC(=O)CC4CC4)c4ccccc4)CC3)c2C1 (mixture of isomers) [Example 7]"
  UNIT_TEXT: "nM"
  IC50: 0.9
- COMPOUND: "CCc1noc(C2CCN(C(C)CC(NC(=O)C3CCC(F)(F)CC3)c3ccccc3)CC2)n1 (mixture of isomers) [Example 129]"
  UNIT_TEXT: "nM"
  IC50: 8.6
- COMPOUND: "Cc1nc2c(n1C1CCN(C(C)C[C@H](NC(=O)C3CCC3)c3ccccc3)CC1)CN(C(=O)C(C)C)CC2 (single isomer, unassigned) [Example 30]"
  UNIT_TEXT: "nM"
  IC50: 11
- COMPOUND: "CCC(=O)N[C@@H](CC(C)N1CCC(n2c(C)nc3c2CCN(C(C)=O)C3)CC1)c1cccc(F)c1 (single isomer, unassigned) [Example 102]"
  UNIT_TEXT: "nM"
  IC50: 25.9
- COMPOUND: "Cc1nc2c(n1C1CCN(C(C)C[C@H](NC(=O)C3CCC3(F)F)c3ccccc3)CC1)CN(C(=O)C(C)C)CC2 (stereo partly shown) [Example 26]"
  UNIT_TEXT: "nM"
  IC50: 38.5
- COMPOUND: "Cc1noc(C2CCN(C(C)C[C@H](NC(=O)C3CCC(F)(F)CC3)c3ccccc3)CC2)n1 (single isomer, unassigned) [Example 109]"
  UNIT_TEXT: "nM"
  IC50: 4.6
- COMPOUND: "COC(=O)N1CCc2c(nc(C)n2C2CCN(C(C)CC(NC(C)=O)c3cccc(F)c3)CC2)C1 (mixture of isomers) [Example 76]"
  UNIT_TEXT: "nM"
  IC50: 5.5
- COMPOUND: "CCC(=O)N[C@@H](CC(C)N1CCC(n2c(C)nc3c2CCN(C(=O)OC)C3)CC1)c1cccc(F)c1 (stereo partly shown) [Example 91]"
  UNIT_TEXT: "nM"
  IC50: 102
- COMPOUND: "COC(=O)N1CCc2nc(C)n(C3CCN(C(C)CC(NC(=O)C4CCC(F)(F)CC4)c4ccccc4)CC3)c2C1 (mixture of isomers) [Example 6]"
  UNIT_TEXT: "nM"
  IC50: 1
- COMPOUND: "COC(=O)N1CCc2nc(C)n(C3CCN(C(C)C[C@H](NC(=O)OC(C)(C)C)c4ccccc4)CC3)c2C1 (single isomer, unassigned) [Example 2]"
  UNIT_TEXT: "nM"
  IC50: 14
